Source listed as patent US5444161A.

- method-description: Absorbance wavelength maximum and molar extinction coefficient of substrate and reaction product
- Assay type: physicochemical
- run-conditions: substrate; molar extinction coefficient
parameter: Substrate ε (OD/M)
# value in OD/M; strip the unit string

Query :: Identify Substrate ε associated with the compound O=[N+]([O-])c1ccccc1O[C@@H]1O[C@H](CO)[C@H](O)[C@H](O)[C@H]1O [ONPG, o-nitrophenyl-β-D-galactopyranoside, reference compound]
Result :: 2000

Query :: Identify Substrate ε associated with the compound O=Cc1cc([N+](=O)[O-])ccc1O[C@@H]1O[C@H](CO)[C@H](O)[C@H](O)[C@H]1O
Result :: 14900

Query :: Identify Substrate ε associated with the compound N#Cc1cc(O[C@@H]2O[C@H](CO)[C@H](O)[C@H](O)[C@H]2O)ccc1[N+](=O)[O-]
Result :: 9200

Query :: Identify Substrate ε associated with the compound O=[N+]([O-])c1ccc(O[C@@H]2O[C@H](CO)[C@H](O)[C@H](O)[C@H]2O)cc1[N+](=O)[O-] [3,4 DNPG, 3,4-Dinitrophenyl-β-D-galactopyranoside]
Result :: 6000

Query :: Identify Substrate ε associated with the compound COc1cc([N+](=O)[O-])ccc1O[C@@H]1O[C@H](CO)[C@H](O)[C@H](O)[C@H]1O
Result :: 7400

###

- method-description: Absorbance wavelength maximum and molar extinction coefficient of substrate and reaction product
- Type: physicochemical
- run-conditions: reaction product; molar extinction coefficient
parameter: Product ε (OD/M)
# value in OD/M; strip the unit string

Query :: Identify Product ε associated with the molecule O=Cc1cc([N+](=O)[O-])ccc1O[C@@H]1O[C@H](CO)[C@H](O)[C@H](O)[C@H]1O
Result :: 16500

Query :: Identify Product ε associated with the molecule O=[N+]([O-])c1ccccc1O[C@@H]1O[C@H](CO)[C@H](O)[C@H](O)[C@H]1O [ONPG, o-nitrophenyl-β-D-galactopyranoside, reference compound]
Result :: 3000

Query :: Identify Product ε associated with the molecule O=[N+]([O-])c1ccc(O[C@@H]2O[C@H](CO)[C@H](O)[C@H](O)[C@H]2O)cc1[N+](=O)[O-] [3,4 DNPG, 3,4-Dinitrophenyl-β-D-galactopyranoside]
Result :: 12400

Query :: Identify Product ε associated with the molecule N#Cc1cc(O[C@@H]2O[C@H](CO)[C@H](O)[C@H](O)[C@H]2O)ccc1[N+](=O)[O-]
Result :: 17000

Query :: Identify Product ε associated with the molecule COc1cc([N+](=O)[O-])ccc1O[C@@H]1O[C@H](CO)[C@H](O)[C@H](O)[C@H]1O
Result :: 17600

###

- method-description: Spontaneous hydrolysis rate of substrates (stability)
- Type: physicochemical
- run-conditions: room temperature; normalized to 10 μg/ml starting concentration of substrate
parameter: log10 of Hydrolysis (log10 of the value in mA/Day)
Quick note: numbers are log10 of Hydrolysis, with mA/Day as the unit.

Query :: Identify log10 of Hydrolysis associated with the compound O=[N+]([O-])c1ccc(O[C@@H]2O[C@H](CO)[C@H](O)[C@H](O)[C@H]2O)cc1[N+](=O)[O-] [3,4 DNPG, 3,4-Dinitrophenyl-β-D-galactopyranoside]
Result :: 0.78

Query :: Identify log10 of Hydrolysis associated with the compound O=Cc1cc([N+](=O)[O-])ccc1O[C@@H]1O[C@H](CO)[C@H](O)[C@H](O)[C@H]1O
Result :: 1.28

Query :: Identify log10 of Hydrolysis associated with the compound COc1cc([N+](=O)[O-])ccc1O[C@@H]1O[C@H](CO)[C@H](O)[C@H](O)[C@H]1O
Result :: 0.00

Query :: Identify log10 of Hydrolysis associated with the compound O=[N+]([O-])c1ccccc1O[C@@H]1O[C@H](CO)[C@H](O)[C@H](O)[C@H]1O [ONPG, o-nitrophenyl-β-D-galactopyranoside, reference compound]
Result :: -0.40

Query :: Identify log10 of Hydrolysis associated with the compound N#Cc1cc(O[C@@H]2O[C@H](CO)[C@H](O)[C@H](O)[C@H]2O)ccc1[N+](=O)[O-]
Result :: 0.70
